// data source = PubChem BioAssay AID608

# Kd per record follows
Biological target: Peptidyl-prolyl cis-trans isomerase FKBP1A (Homo sapiens)
Assay: small-molecule binding to FKBP12 – biophysical, NMR detection (AID 608)
Details: purified FKBP12
The source made the active and inactive calls. The rule behind the calls is not given here.

# compound, target-or-system, Kd
rows = [
    ("c1ccc(Cc2nn3c(-c4ccncc4)nnc3s2)cc1", "Peptidyl-prolyl cis-trans isomerase FKBP1A (Homo sapiens)", "> 4 mM (inactive)"),
    ("Cn1c(=O)[nH]c(=O)c2c1ncn2CCN1CCCCC1", "Peptidyl-prolyl cis-trans isomerase FKBP1A (Homo sapiens)", "> 4 mM (inactive)"),
    ("O=C(Nc1ccccn1)c1cc(-n2cnnc2)ccc1Cl", "Peptidyl-prolyl cis-trans isomerase FKBP1A (Homo sapiens)", "> 4 mM (inactive)"),
    ("Cc1cc(=O)n2[nH]c(COc3ccccc3)nc2n1", "Peptidyl-prolyl cis-trans isomerase FKBP1A (Homo sapiens)", "> 4 mM (inactive)"),
    ("COc1ccc(C)cc1S(=O)(=O)Nc1ccccc1C", "Peptidyl-prolyl cis-trans isomerase FKBP1A (Homo sapiens)", "> 4 mM (inactive)"),
    ("Nc1ncnc2c1ncn2CCN1CCOCC1", "Peptidyl-prolyl cis-trans isomerase FKBP1A (Homo sapiens)", "> 4 mM (inactive)"),
    ("O=C(CNC(=O)c1ccc(F)cc1)NC1=NCCS1", "Peptidyl-prolyl cis-trans isomerase FKBP1A (Homo sapiens)", "> 4 mM (inactive)"),
    ("CS(=O)(=O)N/N=C/c1cccs1", "Peptidyl-prolyl cis-trans isomerase FKBP1A (Homo sapiens)", "> 4 mM (inactive)"),
    ("O=C1N/C(=N\\c2ccccn2)SC1Cc1ccccc1 (configuration not stated)", "Peptidyl-prolyl cis-trans isomerase FKBP1A (Homo sapiens)", "> 4 mM (inactive)"),
    ("COc1ccc(NC(=O)C(N)=O)cc1Cl", "Peptidyl-prolyl cis-trans isomerase FKBP1A (Homo sapiens)", "> 4 mM (inactive)"),
    ("CC(=O)O[C@@H]1CC[C@@]2(C)C(CC[C@]3(C)C2CC=C2C4CC(C)(C)CC[C@]4(C(=O)O)CC[C@]23C)C1(C)C (some centres not stated)", "Peptidyl-prolyl cis-trans isomerase FKBP1A (Homo sapiens)", "> 4 mM (inactive)"),
    ("COc1cc(C(C)=O)ccc1OCC(O)Cn1ccnc1 (configuration not stated)", "Peptidyl-prolyl cis-trans isomerase FKBP1A (Homo sapiens)", "> 4 mM (inactive)"),
]

---

Target: UniProt:P62942
Sequence (P62942 whole entry, looked up): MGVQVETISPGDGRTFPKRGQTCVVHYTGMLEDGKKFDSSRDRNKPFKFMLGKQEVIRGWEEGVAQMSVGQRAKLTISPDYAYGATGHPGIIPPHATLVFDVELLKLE
Experiment: small-molecule binding to FKBP12 – biophysical, NMR detection (AID 608)
Details: purified FKBP12
Active and inactive are the calls of the source. The rule behind the calls is not given here.
Labels: active, inactive

# compound, qualitative-label
rows = [
    ("Cc1nc(-c2ccc(NS(C)(=O)=O)cc2)cs1", "inactive"),
    ("CCc1cc2c(SCC(=O)O)ncnc2s1", "inactive"),
    ("O=c1cccc2n1CC1CC2CN2CCCC[C@@H]12 (some centres not stated)", "inactive"),
    ("Cc1ccc(S(=O)(=O)CC(=O)N2CCOCC2)cc1", "active"),
    ("Cc1onc(-c2ccccc2)c1CO", "inactive"),
    ("OCc1ccc2ncccc2c1", "inactive"),
    ("COC(=O)CC1C(C)(C)C(OC(C)=O)[C@@H]2[C@@H](OC(C)=O)[C@]34O[C@@]2(O)[C@]1(C)C3CC[C@]1(C)C4=CC(=O)O[C@H]1c1ccoc1 (some centres not stated)", "inactive"),
    ("COc1ccc2c3c([nH]c2c1)C(C)=NCC3", "inactive"),
    ("CC(C)CCCC(C)[C@H]1CCC2C3CC=C4CC(=O)CC[C@]4(C)C3CC[C@@]21C (some centres not stated)", "inactive"),
    ("COC(=O)[C@]1(C)CCC[C@]2(C)c3ccc(C(C)C)cc3C(=O)CC12 (some centres not stated)", "inactive"),
    ("O=C(O)Cn1nc(-c2ccccc2)c2ccccc2c1=O", "inactive"),
    ("CC1(C)C=Cc2cc3ccc(=O)oc3cc2O1", "inactive"),
]
